target: mu receptor (Mus musculus, UniProt P42866); construct: expressed in transfected cells; experiment: cell-based; conditions: 1 μM compound; surface staining relative to control, lower = more internalization
Sequence (P42866 whole entry): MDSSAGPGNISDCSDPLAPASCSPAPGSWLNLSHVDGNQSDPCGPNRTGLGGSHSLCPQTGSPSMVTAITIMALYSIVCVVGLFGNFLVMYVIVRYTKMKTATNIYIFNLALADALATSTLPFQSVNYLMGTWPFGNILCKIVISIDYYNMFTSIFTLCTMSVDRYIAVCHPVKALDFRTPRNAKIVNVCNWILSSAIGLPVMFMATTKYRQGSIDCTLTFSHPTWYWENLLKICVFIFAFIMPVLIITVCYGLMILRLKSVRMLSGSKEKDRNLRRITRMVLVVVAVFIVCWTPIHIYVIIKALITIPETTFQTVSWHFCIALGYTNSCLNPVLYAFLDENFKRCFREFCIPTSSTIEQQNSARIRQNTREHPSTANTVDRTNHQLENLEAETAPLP
Rule: remaining activity at 1 µM below 80% gives Yes, anything at or above gives No.

Study these solved cases before continuing.
molecule: CN1CCC23c4c5ccc(O)c4OC2C(NC(=O)c2ccccc2)C=CC3C1C5 (stereo not drawn) [13d, 60-Benzamidomorphine]
label: Yes
//
molecule: CN1CCC23c4c5ccc(O)c4OC2C(NC(=O)Cc2cccs2)C=CC3C1C5 (stereo not drawn) [13h, 6β-(Thiophen-2′-yl)acetamidomorphine]
label: No
//
molecule: CN1CCC23c4c5ccc(O)c4OC2C(NC(=O)c2cccc(C(=O)O)c2)C=CC3C1C5 (stereo not drawn)
label: No
//
molecule: COc1cccc(CC(=O)NC2C=CC3C4Cc5ccc(O)c6c5C3(CCN4C)C2O6)c1 (stereo not drawn) [13a, 6β-(3-Methoxyphenyl)acetamidomorphine]
label: Yes

Input: Please determine if COc1ccc(CC(=O)NC2C=CC3C4Cc5ccc(O)c6c5C3(CCN4C)C2O6)cc1 (stereo not drawn) [13b, 6β-(4-Methoxyphenyl)acetamidomorphine] is below 80% in terms of remaining activity at 1 µM.
Output: No

Input: Does the reported remaining activity at 1 µM of CN1CCC23c4c5ccc(O)c4OC2C(NC(=O)c2ccc(Cl)c(Cl)c2)C=CC3C1C5 (stereo not drawn) [13g, 6β-(3′,4′-Dichloro)benzamidomorphine] stay below 80%?
Output: Yes
